assay: Toxicity in brine shrimp
Assay type: organism-based
condition label: artemia, in vivo

>  <compound>
CCCCCCCCCCCC/C=C\CC[C@@H](O)[C@H](O)CC[C@H](O)[C@@H]1CC[C@@H](CCCCCCCC2=C[C@H](C)OC2=O)O1 [GIGANTRIONENIN]

>  <LC50 [µg/mL]>
13.9

$$$$
>  <compound>
CCCCCCCCCCCCCCC(O)C(O)CC[C@H](O)[C@H]1CC[C@H](CCCCC[C@@H](O)CC2=C[C@H](C)OC2=O)O1 (some centres undefined) [GIGANTETRONENIN]

>  <LC50 [µg/mL]>
9.4

$$$$
>  <compound>
CCCCCCCCCCCC[C@H](O)[C@@H]1CC[C@@H]([C@@H](O)CCCCCCC(O)CCCCC[C@@H](O)CC2=C[C@H](C)OC2=O)O1 (some centres undefined) [ANNOMONTACIN]

>  <LC50 [µg/mL]>
12.5

$$$$
>  <compound>
COc1cccc2c1C(=O)c1c(O)c3c(c(O)c1C2=O)C[C@@](O)(C(=O)CO)C[C@@H]3O[C@H]1C[C@H](N)[C@H](O)[C@H](C)O1 [DOXORUBICIN]

>  <LC50 [µg/mL]>
8

$$$$

---

Overview of reported log10(EC50) across a group of compounds:
Tested on: HT-29
assay: Cytotoxicity against human HT-29 cells
Assay type: functional
condition label: read-out: ED50 (the source's name)
measured metric: log10(EC50) (log10 of the value in µg/mL)

>  <compound>
CCCCCCCCCCCC[C@@H](OC(C)=O)[C@H]1CC[C@H]([C@@H](CCCCCC[C@H](CCCCC[C@H](CC2=C[C@H](C)OC2=O)OC(C)=O)OC(C)=O)OC(C)=O)O1

>  <log10(EC50)>
1.17

$$$$
>  <compound>
CCCCCCCCCCCC/C=C\CC[C@@H](OC(C)=O)[C@@H](CC[C@H](OC(C)=O)[C@@H]1CC[C@@H](CCCCCC(CC2=CC(C)OC2=O)OC(C)=O)O1)OC(C)=O (stereo not given in full)

>  <log10(EC50)>
0.20

$$$$
>  <compound>
CCCCCCCCCCCC/C=C\CC[C@@H](O)[C@H](O)CC[C@H](O)[C@@H]1CC[C@@H](CCCCCCCC2=C[C@H](C)OC2=O)O1 [GIGANTRIONENIN]

>  <log10(EC50)>
-2.53

$$$$
>  <compound>
CCCCCCCCCCCC/C=C\CC[C@@H](OC(C)=O)[C@@H](CC[C@H](OC(C)=O)[C@@H]1CC[C@@H](CCCCCCCC2=CC(C)OC2=O)O1)OC(C)=O (stereo not given in full)

>  <log10(EC50)>
-1.18

$$$$
>  <compound>
COc1cccc2c1C(=O)c1c(O)c3c(c(O)c1C2=O)C[C@@](O)(C(=O)CO)C[C@@H]3O[C@H]1C[C@H](N)[C@H](O)[C@H](C)O1 [DOXORUBICIN]

>  <log10(EC50)>
-2.32

$$$$

Every entry's value here was drawn from ChEMBL document CHEMBL1150058.
